# reported IC50; entries follow
Molecular target: Neprilysin (Rattus norvegicus)
Sequence (P07861 whole entry): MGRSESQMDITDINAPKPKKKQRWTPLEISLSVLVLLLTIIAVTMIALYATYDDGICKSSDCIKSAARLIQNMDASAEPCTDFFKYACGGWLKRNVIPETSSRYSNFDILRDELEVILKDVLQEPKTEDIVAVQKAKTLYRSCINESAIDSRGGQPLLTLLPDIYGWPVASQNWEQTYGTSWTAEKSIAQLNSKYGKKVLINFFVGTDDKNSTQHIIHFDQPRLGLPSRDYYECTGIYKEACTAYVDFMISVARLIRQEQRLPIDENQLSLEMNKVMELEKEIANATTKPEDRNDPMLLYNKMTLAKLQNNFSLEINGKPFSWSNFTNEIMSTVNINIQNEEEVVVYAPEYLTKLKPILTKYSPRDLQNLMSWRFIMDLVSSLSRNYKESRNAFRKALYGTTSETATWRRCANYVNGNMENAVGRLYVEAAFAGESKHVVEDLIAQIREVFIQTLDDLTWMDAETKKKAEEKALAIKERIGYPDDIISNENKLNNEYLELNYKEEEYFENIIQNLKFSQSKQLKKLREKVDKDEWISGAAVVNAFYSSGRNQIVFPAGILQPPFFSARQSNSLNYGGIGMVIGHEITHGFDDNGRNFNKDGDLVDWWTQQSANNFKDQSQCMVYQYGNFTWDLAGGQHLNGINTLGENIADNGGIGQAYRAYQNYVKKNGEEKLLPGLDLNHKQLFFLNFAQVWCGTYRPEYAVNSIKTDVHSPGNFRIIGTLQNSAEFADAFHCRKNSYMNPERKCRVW

{"molecule": "CC(C)C[C@H](NP(=O)(O)O[C@@H]1O[C@@H](C)[C@H](O)[C@@H](O)[C@H]1O)C(=O)N[C@@H](Cc1c[nH]c2ccccc12)C(=O)O [PHOSPHORAMIDON]", "tested-on": "Neprilysin (Rattus norvegicus)", "unit-string": "µM", "IC50": 0.2}
{"molecule": "O=C(O)CCCNCP(=O)(O)CCc1ccccc1", "tested-on": "Neprilysin (Rattus norvegicus)", "unit-string": "µM", "IC50": 2000}
{"molecule": "CC1CCCC(C(=O)O)N1C(=O)CCS (stereo not drawn)", "tested-on": "Neprilysin (Rattus norvegicus)", "unit-string": "µM", "IC50": 2000}

----------
biological target: Neprilysin (Homo sapiens, UniProt P08473); assay: Inhibitory activity against neutral endopeptidase (NEP) from human blood serum
Sequence (P08473 whole entry): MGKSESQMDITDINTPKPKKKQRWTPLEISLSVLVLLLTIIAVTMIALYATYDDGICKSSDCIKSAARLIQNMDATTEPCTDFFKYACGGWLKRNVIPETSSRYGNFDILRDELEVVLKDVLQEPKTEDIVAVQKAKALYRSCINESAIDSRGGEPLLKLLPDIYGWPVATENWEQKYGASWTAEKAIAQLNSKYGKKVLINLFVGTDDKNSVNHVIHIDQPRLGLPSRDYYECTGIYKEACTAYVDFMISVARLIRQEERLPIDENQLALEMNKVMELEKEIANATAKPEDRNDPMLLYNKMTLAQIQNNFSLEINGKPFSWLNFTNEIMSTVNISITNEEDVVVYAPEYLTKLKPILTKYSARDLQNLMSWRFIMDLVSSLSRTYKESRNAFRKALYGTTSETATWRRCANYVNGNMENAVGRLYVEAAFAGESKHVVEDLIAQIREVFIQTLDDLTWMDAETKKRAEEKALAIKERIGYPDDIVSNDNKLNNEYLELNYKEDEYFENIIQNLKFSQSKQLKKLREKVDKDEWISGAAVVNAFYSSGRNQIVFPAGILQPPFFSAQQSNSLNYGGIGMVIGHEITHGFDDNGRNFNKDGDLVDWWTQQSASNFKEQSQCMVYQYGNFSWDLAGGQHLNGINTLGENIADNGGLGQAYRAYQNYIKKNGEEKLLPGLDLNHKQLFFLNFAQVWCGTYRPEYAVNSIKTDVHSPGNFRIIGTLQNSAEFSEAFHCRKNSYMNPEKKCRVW
# reported IC50; entries follow

{"compound": "CC(C)C[C@H](NP(=O)(O)O[C@@H]1O[C@@H](C)[C@H](O)[C@@H](O)[C@H]1O)C(=O)N[C@@H](Cc1c[nH]c2ccccc12)C(=O)O", "IC50 [µM]": 0.1}
{"compound": "CC(=O)SCC(C)C(=O)NCc1ccccc1 (stereo not drawn)", "IC50 [µM]": 20}
{"compound": "CC(=O)SCC(C)C(=O)Nc1ccccc1 (stereo not drawn)", "IC50 [µM]": 20}

Taken from ChEMBL document CHEMBL1145855.
